# System: BVDV-1 (strain PE515)
# experimental-protocol: Anti-BVDV assay, virus-induced cytopathic effect in MDBK cells (MTS)
# Format: cell-based, Bovine Viral Diarrhea Virus
# condition-notes: Bovine viral diarrhea virus isolates and strains; Table 10; reduction of virus induced cytopathic effect in MDBK cells by 50%; read-out: EC50
Please assign false whenever EC50 is at or above 0.06 µg/mL, and true whenever it is below.

Fc1ccccc1-c1nc2ccn(Cc3ccc(I)cc3)cc-2n1 :: true

Enquiry: Strictly below 0.06 µg/mL in EC50? Cc1cn(Cc2ccc(Br)cc2)cc2nc(-c3ccccc3)nc1-2
Return: false

Enquiry: Strictly below 0.06 µg/mL in EC50? Fc1ccccc1-c1nc2ccn(Cc3ccc(Cl)cc3)cc-2n1
Return: true

Enquiry: Strictly below 0.06 µg/mL in EC50? Brc1cccc(-c2nc3ccn(CCOc4ccccc4)cc-3n2)c1
Return: false

Enquiry: Strictly below 0.06 µg/mL in EC50? c1ccc(-c2ccc(Cn3ccc4nc(-c5cccc6ccccc56)nc-4c3)cc2)cc1
Return: false

====

# Tested on: Vero cells
# experimental-protocol: Metabolism of confluent Vero cells (MTS)
# Assay type: cell-based
# condition-notes: Table 13; reduction of metabolism of confluent Vero cells by 50%, MTS method
Would you mind telling me the reported TC50 of each entry?

Hey, quick one: what's TC50 for each of these?
1. Fc1cccc(F)c1Cn1ccc2nc(-c3c(F)cccc3F)nc-2c1
2. Fc1ccc(Cn2ccc3nc(-c4c(F)cccc4F)nc-3c2)c(F)c1
3. c1ccc(-c2ccc(Cn3ccc4nc(-c5ccccc5)nc-4c3)cc2)cc1
4. Fc1cccc(-c2nc3ccn(Cc4ccc(F)cc4F)cc-3n2)c1
5. Cc1cccc(-c2nc3ccn(Cc4ccc(Br)cc4)cc-3n2)c1

Return:
[">100 µg/mL", ">100 µg/mL", "69 µg/mL", ">100 µg/mL", ">100 µg/mL"]

Hey, quick one: what's TC50 for each of these?
1. Fc1cccc(-c2nc3ccn(Cc4ccc(Br)cc4)cc-3n2)c1
2. COc1cccc(-c2nc3ccn(Cc4ccc(Br)cc4)cc-3n2)c1
3. Fc1cccc(F)c1-c1nc2ccn(Cc3ccc(Cl)c(Cl)c3)cc-2n1
4. Fc1ccc(Cn2ccc3nc(-c4c(F)ccc(F)c4F)nc-3c2)c(F)c1

Return:
>100 µg/mL
>42 µg/mL
59 µg/mL
>100 µg/mL

====

# Test system: HCV replicon in Huh-5-2 cells
# experimental-protocol: Anti-HCV replicon assay, luciferase activity in Huh-5-2 cells
# Assay type: cell-based
# condition-notes: Hepatitis C virus, Table 11, inhibition of luciferase activity in the replicon system by 50%
property-name: EC50 (µg/mL)
One number for each entry, in µg/mL.

Hey, quick one: what's EC50 for each of these?
1. Fc1ccccc1-c1nc2ccn(Cc3ccc(I)cc3)cc-2n1
2. Clc1c2nc(-c3ccccc3)nc-2ccn1Cc1ccc(Br)cc1
3. Brc1ccc(Cn2ccc3nc(-c4ccccn4)nc-3c2)cc1

Return:
1. 0.17
2. 1
3. 0.13

Hey, quick one: what's EC50 for each of these?
1. CC(C)(C)c1ccc(Cn2ccc3nc(-c4ccccc4)nc-3c2)cc1
2. Fc1ccccc1-c1nc2ccn(Cc3ccc(Cl)cc3)cc-2n1

Return:
1
0.29

====

Would you mind telling me the reported EC50 of each entry?
# Tested on: BVDV-1 (strain PE515)
# experimental-protocol: Anti-BVDV assay, virus-induced cytopathic effect in MDBK cells (MTS)
# Assay type: cell-based, Bovine Viral Diarrhea Virus
# condition-notes: Bovine viral diarrhea virus isolates and strains; Table 9; reduction of virus induced cytopathic effect in MDBK cells by 50%; BVDV strain PE515; mean of 2-5 determinations; read-out: EC50
One number for each entry, in µg/mL.

Answered examples (3):
Cc1cccc(Cn2ccc3nc(-c4ccccc4)nc-3c2)c1 :: 0.022
Brc1ccc(Cn2ccc3nc(-c4ccccc4)nc-3c2)cc1 :: 0.029
FC(F)(F)c1ccc(Cn2ccc3nc(-c4ccccc4)nc-3c2)cc1 :: 0.04

Hey, quick one: what's EC50 for each of these?
1. CC(C)=CCn1ccc2nc(-c3ccccc3)nc-2c1
2. C(=Cc1ccccc1)Cn1ccc2nc(-c3ccccc3)nc-2c1
3. Fc1ccc(Cn2ccc3nc(-c4cc(F)ccc4F)nc-3c2)c(F)c1

Return:
0.325
0.018
0.067

====

# Tested on: BVDV-1 (strain PE515)
# experimental-protocol: Anti-BVDV assay, virus-induced cytopathic effect in MDBK cells (MTS)
# Format: cell-based, Bovine Viral Diarrhea Virus
# condition-notes: Bovine viral diarrhea virus isolates and strains; Table 9; reduction of virus induced cytopathic effect in MDBK cells by 50%; BVDV strain PE515; mean of 2-5 determinations; read-out: EC50
Would you mind telling me the reported EC50 of each entry?
Reply with the number and its unit after it.

Answered examples (3):
c1ccc(Cn2ccc3nc(-c4ccccc4)nc-3c2)cc1 [GPJN-4] :: 0.04 µg/mL
Fc1ccc(Cn2ccc3nc(-c4c(F)cccc4F)nc-3c2)c(F)c1 [GPJN-40] :: 0.25 µg/mL
c1ccc(-c2nc3ccn(Cc4ccc5ccccc5c4)cc-3n2)cc1 [GPJN-26] :: 0.041 µg/mL

Kindly review the next molecule as well.
Enquiry: Find the recorded EC50 belonging to Fc1cc(F)c(Cn2ccc3nc(-c4c(F)cccc4F)nc-3c2)c(F)c1 [GPJN-41] and report it.
Return: 0.58 µg/mL

====

# System: HCV replicon in Huh-5-2 cells
# experimental-protocol: Anti-HCV replicon assay, luciferase activity in Huh-5-2 cells
# Assay type: cell-based
# condition-notes: Hepatitis C virus, Table 11, inhibition of luciferase activity in the replicon system by 50%
Would you mind telling me the reported EC50 of each entry?

Brc1ccc(Cn2ccc3nc(-c4cccc5ccccc45)nc-3c2)cc1 :: < 0.62 µg/mL

Hey, quick one: what's EC50 for each of these?
1. Brc1ccc(Cn2ccc3nc(CSc4ccccc4)nc-3c2)cc1
2. FC(F)(F)c1cccc(-c2nc3ccn(Cc4ccc(Br)cc4)cc-3n2)c1

Return:
< 0.62 µg/mL
< 0.62 µg/mL

====

# Tested on: BVDV-1 (strain PE515)
# experimental-protocol: Anti-BVDV assay, virus-induced cytopathic effect in MDBK cells (MTS)
# Format: cell-based, Bovine Viral Diarrhea Virus
# condition-notes: Bovine viral diarrhea virus isolates and strains; Table 9; reduction of virus induced cytopathic effect in MDBK cells by 50%; BVDV strain PE515; mean of 2-5 determinations; read-out: EC50
Class assignment keyed on EC50, ranges bin A (below 0.04 µg/mL), bin B (0.04 µg/mL to below 0.2 µg/mL), bin C (0.2 µg/mL or more)

Some entries whose results are on file:
Ic1ccc(Cn2ccc3nc(-c4ccccc4)nc-3c2)cc1 :: bin A
CC(C)(C)c1ccc(Cn2ccc3nc(-c4ccccc4)nc-3c2)cc1 :: bin C
Fc1cccc(-c2nc3ccn(Cc4ccc(F)cc4F)cc-3n2)c1 :: bin C
Fc1cccc(-c2nc3ccn(Cc4ccc(Br)cc4)cc-3n2)c1 :: bin A
c1ccc(-c2nc3ccn(CC4CCCCC4)cc-3n2)cc1 :: bin B
Brc1ccc(Cn2ccc3nc(-c4ccccn4)nc-3c2)cc1 :: bin B

Enquiry: Bin? Fc1cccc(F)c1Cn1ccc2nc(-c3c(F)cccc3F)nc-2c1
Return: bin B

Enquiry: Bin? COc1cccc(Cn2ccc3nc(-c4ccccc4)nc-3c2)c1
Return: bin B

Enquiry: Bin? Brc1ccc(Cn2ccc3nc(-c4ccncc4)nc-3c2)cc1
Return: bin B

Enquiry: Bin? Cc1ccc(Cn2ccc3nc(-c4ccccc4)nc-3c2)cc1
Return: bin A

====

# Test system: BVDV-1 (strain PE515)
# experimental-protocol: Anti-BVDV assay, virus-induced cytopathic effect in MDBK cells (MTS)
# Assay type: cell-based, Bovine Viral Diarrhea Virus
# condition-notes: Bovine viral diarrhea virus isolates and strains; Table 9; reduction of virus induced cytopathic effect in MDBK cells by 50%; BVDV strain PE515; mean of 2-5 determinations; read-out: EC50
Please assign -1 whenever EC50 is at or above 0.06 µg/mL, and 1 whenever it is below.

Some entries whose results are on file:
Brc1ccc(Cn2ccc3nc(-c4cccs4)nc-3c2)cc1 :: 1
Clc1ccccc1-c1nc2ccn(Cc3ccc(Br)cc3)cc-2n1 :: -1

Enquiry: Strictly below 0.06 µg/mL in EC50? c1ccc(CCCn2ccc3nc(-c4ccccc4)nc-3c2)cc1
Return: -1

Enquiry: Strictly below 0.06 µg/mL in EC50? Clc1ccc(Cn2ccc3nc(-c4ccccc4)nc-3c2)cc1
Return: 1

Enquiry: Strictly below 0.06 µg/mL in EC50? COc1ccccc1Cn1ccc2nc(-c3ccccc3)nc-2c1
Return: 1

Enquiry: Strictly below 0.06 µg/mL in EC50? Clc1ccccc1Cn1ccc2nc(-c3ccccc3)nc-2c1
Return: 1

Enquiry: Strictly below 0.06 µg/mL in EC50? Cc1ccccc1Cn1ccc2nc(-c3ccccc3)nc-2c1
Return: -1

Enquiry: Strictly below 0.06 µg/mL in EC50? Fc1ccc(Cn2ccc3nc(-c4c(F)cccc4F)nc-3c2)cc1
Return: -1
